- measurementProtocol: Comparison of degradation in aqueous solution and in the formulation (forced degradation, HPLC)
- Type: physicochemical
- experimentalConditions: 75° C.; formulated in the pharmaceutical composition; one week
measurementKind: degraded at 168 h

Documented degraded at 168 h of CC(C)(CNC(N)=O)NCC(O)COC(=O)c1ccccc1F (stereo not shown) : ~25%

---

- measurementProtocol: Comparison of degradation in aqueous solution and in the formulation (forced degradation, HPLC)
- Assay type: physicochemical
- experimentalConditions: aqueous solution (deionized water); 75° C.; aqueous solution; one week
measurementKind: degraded at 168 h

Documented degraded at 168 h of CC(C)(CNC(N)=O)NCC(O)COC(=O)c1ccccc1F (stereo not shown) : ~70%

Source of measurements: patent US4579867A
